experiment: AUC (0 to t) in SPF ICR mouse at 2 mg/kg,iv measured upto 24 hrs by LC-MS/MS analysis; format: ADME, organism-based; conditions: in vivo
VALUE KIND: AUC(0-t) at 24 h (ng·h/mL)
Lab book: enter the figure in ng·h/mL, no units written.

Q: Return reported AUC(0-t) at 24 h; argument: CCN(CC)C/C=C/C(=O)Nc1cc2c(Nc3ccc(F)c(Cl)c3)ncnc2cc1OCc1cn(CCCCCCCC(=O)N[C@H](C(=O)N2C[C@H](O)C[C@H]2C(=O)N[C@H](C)c2ccc(-c3scnc3C)cc2)C(C)(C)C)nn1
A: 2350

====

assay: Half life in SPF ICR mouse at 5 mg/kg,ip measured upto 24 hrs by LC-MS/MS analysis; assay type: ADME, organism-based; conditions: in vivo
VALUE KIND: half-life (min)
Number only, in min; omit the unit.

Q: Need half-life, item CCN(CC)C/C=C/C(=O)Nc1cc2c(Nc3ccc(F)c(Cl)c3)ncnc2cc1OCc1cn(CCCCCCCC(=O)N[C@H](C(=O)N2C[C@H](O)C[C@H]2C(=O)N[C@H](C)c2ccc(-c3scnc3C)cc2)C(C)(C)C)nn1
A: 57.6

====

assay: MRT (0 to t) in SPF ICR mouse at 2 mg/kg,iv measured upto 24 hrs by LC-MS/MS analysis; format: ADME, organism-based; conditions: in vivo
VALUE KIND: MRT last at 24 h
Give me the value, and tack the unit on after it.

Q: What does the data say about its MRT last at 24 h? Entry: CCN(CC)C/C=C/C(=O)Nc1cc2c(Nc3ccc(F)c(Cl)c3)ncnc2cc1OCc1cn(CCCCCCCC(=O)N[C@H](C(=O)N2C[C@H](O)C[C@H]2C(=O)N[C@H](C)c2ccc(-c3scnc3C)cc2)C(C)(C)C)nn1
A: 17.4 min

====

test: Metabolic stability in mouse liver microsomes assessed as intrinsic clearance at 1 uM incubated upto 60 mins in presence of NADPH by LC-MS/MS analysis; format: ADME, Microsome; conditions: read-out: CLH
VALUE KIND: microsomal CLint at 1 µM
# include the unit after the value

Q: Would you mind telling me what microsomal CLint at 1 µM value was observed for CCN(CC)C/C=C/C(=O)Nc1cc2c(Nc3ccc(F)c(Cl)c3)ncnc2cc1OCc1cn(CCCCCCCC(=O)N[C@H](C(=O)N2C[C@H](O)C[C@H]2C(=O)N[C@H](C)c2ccc(-c3scnc3C)cc2)C(C)(C)C)nn1 ?
A: 11.8 µL/min/mg

====

experiment: Metabolic stability in dog liver microsomes assessed as intrinsic clearance at 1 uM incubated upto 60 mins in presence of NADPH by LC-MS/MS analysis; format: ADME, Canis lupus familiaris, Microsome; conditions: read-out: CLH
VALUE KIND: microsomal CLint at 1 µM (µL/min/mg)
The reply should contain only the number, in µL/min/mg.

Q: What value of microsomal CLint at 1 µM has been reported for the following molecule? CCN(CC)C/C=C/C(=O)Nc1cc2c(Nc3ccc(F)c(Cl)c3)ncnc2cc1OCc1cn(CCCCCCCC(=O)N[C@H](C(=O)N2C[C@H](O)C[C@H]2C(=O)N[C@H](C)c2ccc(-c3scnc3C)cc2)C(C)(C)C)nn1
A: 17.8

====

tested on: A549; assay: Antiproliferative activity against human A549 cells harboring EGFR wild type assessed as inhibition of cell growth incubated for 48 to 72 hrs by CCK-8 assay; type: functional, cell-based
pIC50: −log10 of the molar value.
VALUE KIND: pIC50

Q: # lookup: pIC50 of CCN(CC)C/C=C/C(=O)Nc1cc2c(Nc3ccc(F)c(Cl)c3)ncnc2cc1OCc1cn(CCCCCCCCCCC(=O)N[C@H](C(=O)N2C[C@H](O)C[C@H]2C(=O)NCc2ccc(-c3scnc3C)cc2)C(C)(C)C)nn1
A: < 4.70

Q: Entry under review: Cc1ncsc1-c1ccc(CNC(=O)[C@@H]2C[C@@H](O)CN2C(=O)[C@@H](NC(=O)COCCn2cc(CCCCCOc3cc4ncnc(Nc5ccc(F)c(Cl)c5)c4cc3NC(=O)/C=C/CN3CCCCC3)nn2)C(C)(C)C)cc1 . Reported pIC50?
A: < 4.70

Q: Give its pIC50 value. Item: Cc1ncsc1-c1ccc(CNC(=O)[C@@H]2C[C@@H](O)CN2C(=O)[C@@H](NC(=O)CCCCCCCCCCn2cc(COc3cc4ncnc(Nc5ccc(F)c(Cl)c5)c4cc3NC(=O)/C=C/CN(C)C)nn2)C(C)(C)C)cc1
A: < 4.70

Q: Give its pIC50 value. Item: Cc1ncsc1-c1ccc(CNC(=O)[C@@H]2C[C@@H](O)CN2C(=O)[C@@H](NC(=O)CCCCCCCn2cc(COCCOCCOCCOc3cc4ncnc(Nc5ccc(F)c(Cl)c5)c4cc3NC(=O)/C=C/CN3CCCCC3)nn2)C(C)(C)C)cc1
A: < 4.70

Q: What measured pIC50 goes with Cc1ncsc1-c1ccc(CNC(=O)[C@@H]2C[C@@H](O)CN2C(=O)[C@@H](NC(=O)CCCCCCCCCn2cc(CCCCCOc3cc4ncnc(Nc5ccc(F)c(Cl)c5)c4cc3NC(=O)/C=C/CN3CCCCC3)nn2)C(C)(C)C)cc1 ?
A: 5.03

====

experiment: MRT (0 to infinity) in SPF ICR mouse at 5 mg/kg,ip measured upto 24 hrs by LC-MS/MS analysis; type: ADME, organism-based; details: in vivo
VALUE KIND: MRT inf (h)
Numeric only. Scale: h

Q: What MRT inf value was documented for this compound, CCN(CC)C/C=C/C(=O)Nc1cc2c(Nc3ccc(F)c(Cl)c3)ncnc2cc1OCc1cn(CCCCCCCC(=O)N[C@H](C(=O)N2C[C@H](O)C[C@H]2C(=O)N[C@H](C)c2ccc(-c3scnc3C)cc2)C(C)(C)C)nn1 ?
A: 2.89

====

assay: Tmax in SPF ICR mouse at 2 mg/kg,iv measured upto 24 hrs by LC-MS/MS analysis; type: ADME, organism-based; conditions: in vivo
VALUE KIND: Tmax (min)
Use min as the unit, but write only the number.

Q: Would you mind telling me what Tmax value was observed for CCN(CC)C/C=C/C(=O)Nc1cc2c(Nc3ccc(F)c(Cl)c3)ncnc2cc1OCc1cn(CCCCCCCC(=O)N[C@H](C(=O)N2C[C@H](O)C[C@H]2C(=O)N[C@H](C)c2ccc(-c3scnc3C)cc2)C(C)(C)C)nn1 ?
A: 4.8

====

test: Cmax in SPF ICR mouse at 5 mg/kg,ip measured upto 24 hrs by LC-MS/MS analysis; format: ADME, organism-based; details: in vivo
VALUE KIND: Cmax (ng/mL)
Use ng/mL as the unit, but write only the number.

Q: Requested read-out: Cmax. Entry: CCN(CC)C/C=C/C(=O)Nc1cc2c(Nc3ccc(F)c(Cl)c3)ncnc2cc1OCc1cn(CCCCCCCC(=O)N[C@H](C(=O)N2C[C@H](O)C[C@H]2C(=O)N[C@H](C)c2ccc(-c3scnc3C)cc2)C(C)(C)C)nn1
A: 656

====

experiment: AUC (0 to t) in SPF ICR mouse at 5 mg/kg,ip measured upto 24 hrs by LC-MS/MS analysis; format: ADME, organism-based; details: in vivo
VALUE KIND: AUC(0-t) at 24 h (ng·h/mL)
Give just the numeric value; ng·h/mL need not be written.

Q: # input compound: CCN(CC)C/C=C/C(=O)Nc1cc2c(Nc3ccc(F)c(Cl)c3)ncnc2cc1OCc1cn(CCCCCCCC(=O)N[C@H](C(=O)N2C[C@H](O)C[C@H]2C(=O)N[C@H](C)c2ccc(-c3scnc3C)cc2)C(C)(C)C)nn1 ; wanted: its AUC(0-t) at 24 h
A: 2820

====

assay: Metabolic stability in rat liver microsomes assessed as intrinsic clearance at 1 uM incubated upto 60 mins in presence of NADPH by LC-MS/MS analysis; assay type: ADME, Microsome; conditions: read-out: CLH
VALUE KIND: microsomal CLint at 1 µM (µL/min/mg)
Quick note: give the figure in µL/min/mg, leave out the unit.

Q: Query (molecule): CCN(CC)C/C=C/C(=O)Nc1cc2c(Nc3ccc(F)c(Cl)c3)ncnc2cc1OCc1cn(CCCCCCCC(=O)N[C@H](C(=O)N2C[C@H](O)C[C@H]2C(=O)N[C@H](C)c2ccc(-c3scnc3C)cc2)C(C)(C)C)nn1 ; field requested: microsomal CLint at 1 µM
A: 7.4

====

assay: Metabolic stability in monkey liver microsomes assessed as elimination rate constant at 1 uM incubated upto 60 mins in presence of NADPH by LC-MS/MS analysis; type: ADME, Macaca mulatta, Microsome; conditions: rhesus monkey
VALUE KIND: k el at 1 h, 1 µM (s⁻¹)
Output spec: scalar in s⁻¹, unitless text.

Q: Which k el at 1 h, 1 µM is reported for this compound? CCN(CC)C/C=C/C(=O)Nc1cc2c(Nc3ccc(F)c(Cl)c3)ncnc2cc1OCc1cn(CCCCCCCC(=O)N[C@H](C(=O)N2C[C@H](O)C[C@H]2C(=O)N[C@H](C)c2ccc(-c3scnc3C)cc2)C(C)(C)C)nn1
A: 0.0003
